Assay: NCI Yeast Anticancer Drug Screen. Data for the mlh1 rad18 strain (AID 175)
Conditions: S. cerevisiae mlh1 rad18 strain growth inhibition; at 50.0 µM (retest, dose inferred, filed as 5.0); hits give high values
About 79,000 compounds went through this panel and 15% of them were active in at least one assay; those are over-represented in the sample as a whole. Calls of active or inactive are those of the source. No stated cut-off is given here; in the data, active means growth inhibition above about 70%; inactive means the rest.
# growth inhibition listing for each entry below
Measured attribute: growth inhibition

{"columns": ["Molecule", "Measured attribute", "Experimental result"],
 "data": [
  ["CC(CO)CCC(=O)C(C)C1C(=O)CC2CC3CC(O)CCC3(C)CC21C (configuration not stated)", "growth inhibition", "89% (active)"],
  ["Cc1c2ccccc2cc2c1ccc1cccc(F)c12", "growth inhibition", "92% (active)"],
  ["CCCCCCSc1nc2ccc(N=Cc3ccccc3O)cc2s1", "growth inhibition", "88% (active)"],
  ["Cc1cc(N/N=C(\\c2ccccc2)c2ccccn2)nc2ccccc12", "growth inhibition", "92% (active)"],
  ["Cc1ccc(C(Cl)(c2ccc(C)cc2)c2ccc(C)cc2)cc1", "growth inhibition", "91% (active)"],
  ["O=[N+]([O-])c1c(Cl)c(Cl)c(O)c(Cl)c1Cl", "growth inhibition", "89% (active)"],
  ["Nc1c(-c2ccc(C3=NCCN3)cc2)[nH]c2cc(C3=NCCN3)ccc12", "growth inhibition", "90% (active)"]
]}

---

# growth inhibition listing for each entry below
Experiment: NCI Yeast Anticancer Drug Screen. Data for the cln2 rad14 strain (AID 165);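 further: 0% = growth equal to vehicle treated cultures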
Conditions: S. cerevisiae cln2 rad14 strain, at 50.0 µM, hits give high values
This is part of a sample that, as a whole, favours compounds with a hit. Of some 79,000 tested, about 15% had one in any assay.

{"columns": ["Compound", "growth inhibition / %"],
 "data": [
  ["[Pt].c1ccc([PH+](CC[PH+](CC[PH+](c2ccccc2)c2ccccc2)CC[PH+](c2ccccc2)c2ccccc2)c2ccccc2)cc1", 89.3],
  ["CCN(CC)CCCOC(=O)C(c1ccccc1)C1CCCCC1 (stereo not drawn)", 88.5],
  ["CC/C(=C\\c1cccc(OC)c1)c1ccncc1", 90.3],
  ["CCc1cccc(CC)c1NC(=O)C(C#N)C1=C(Cl)C(=O)c2ccccc2C1=O (stereo not drawn)", 91.3],
  ["Ic1ccc2c(c1)N(c1ccccc1)c1cc(N=c3ccc4nc5ccc(I)cc5n(-c5ccccc5)c-4c3)ccc1N2", 91.8],
  ["O=C(NNc1ccccc1)c1ccc([N+](=O)[O-])cc1", 92],
  ["CCOc1ccc2c(c1)[n+]([O-])c(S(=O)(=O)c1ccc(C)cc1)c(N)[n+]2[O-]", 90.3],
  ["Cc1cc(=O)[nH]c2cc3oc4ccccc4c3cc12", 68.1],
  ["c1ccc(C2=NCCC(c3ccccc3)S2)cc1 (stereo not drawn)", -41.5],
  ["COc1ccc(C=Nc2ccccc2O)cc1", -15.9],
  ["Oc1ccc(Cc2cc(Cl)cc(Cl)c2O)cc1Cl", 99.3],
  ["C=CCNc1nc2c(s1)C(=O)c1ccccc1C2=O", 91.8],
  ["CN(C)C(=S)Oc1ccc(C(C)(C)C)cc1", -34.7]
]}

---

# growth inhibition listing for each entry below
Assay: NCI Yeast Anticancer Drug Screen. Data for the cln2 rad14 strain (AID 165);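 further: 0% = growth equal to vehicle treated cultures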
Details: S. cerevisiae cln2 rad14 strain, at 5.0 µM (retest, dose inferred, filed as 0.5), hits give high values
The panel holds about 79,000 compounds, 15% with a hit somewhere; the sample as a whole holds those more often.
Measured attribute: growth inhibition (%)

{"columns": ["Molecule", "Measured attribute", "Experimental result"],
 "data": [
  ["CN(C)/N=C1\\CC(c2ccccc2)C(C#N)(C#N)C1(C#N)C#N (stereo not given)", "growth inhibition", 39],
  ["O=C1CCC(c2ccccc2)=NN1c1nc2ccccc2s1", "growth inhibition", -3],
  ["O=C1C2C3CCC(O3)C2C(=O)N1c1cccc2ccccc12 (stereo not given)", "growth inhibition", 0],
  ["CC(=O)N(C)c1ccc(/C=C2\\C=Cc3ccccc32)cc1", "growth inhibition", -4],
  ["Cc1ccc(O)c(C(C)(C)c2ccccc2)c1", "growth inhibition", -6],
  ["CCCCCCCCCCNC(=O)C[n+]1cccc(C(=O)Nc2ccccc2)c1", "growth inhibition", 3],
  ["CC(=O)OC1CCC(C(C)(C)C)C(C)C1 (stereo not given)", "growth inhibition", 2],
  ["CCCCCC(C1SC(=S)NC1=O)C1SC(=S)NC1=O (stereo not given)", "growth inhibition", -1],
  ["CCN(CC)CCCCSc1ccc([N+](=O)[O-])cc1[N+](=O)[O-]", "growth inhibition", 43],
  ["FC(F)(F)c1nc(SCc2ccc(Cl)cc2)n[nH]1", "growth inhibition", -10]
]}

---

Assay: NCI Yeast Anticancer Drug Screen. Data for the rad50 strain (AID 155);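 further: 0% = growth of vehicle-only cultures of the same strain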
Conditions: S. cerevisiae rad50 strain growth inhibition; at 50.0 µM (retest, dose inferred, filed as 5.0)
Compounds without any hit were thinned out: in the full panel of roughly 79,000, 15% have a hit. Calls of active or inactive are those of the source. No stated cut-off is given here; in the data, active means growth inhibition above about 70%; inactive means the rest.
Labels: 1 (yes) = active, 0 (no) = inactive

{"columns": ["Molecule", "Classification"],
 "data": [
  ["CN(C)CC1CCC2=C(C1=O)C(c1ccc(Cl)c(Cl)c1)C1=C(CCC(CN(C)C)C1=O)O2 (configuration not stated)", "0 (no)"],
  ["O=C1/C(=C/c2cccc([N+](=O)[O-])c2)Sc2scc(-c3ccc([N+](=O)[O-])cc3)[n+]21", "1 (yes)"],
  ["O=C(O)C(=O)Cc1ccccc1[N+](=O)[O-]", "0 (no)"],
  ["Cc1ccc(C)c(NC(=O)CCC(=O)CC(=O)c2ccncc2)c1", "0 (no)"],
  ["Cc1ccc(C(=O)C(CCC#N)(CCC#N)CCC#N)cc1", "0 (no)"],
  ["Nc1ccc(Cl)c2c1C(=O)c1ccccc1C2=O", "0 (no)"],
  ["CC1=C(C(=O)OC(C)C)C(c2ccccc2[N+](=O)[O-])C(C(=O)OC(CO[N+](=O)[O-])CO[N+](=O)[O-])=C(C)N1 (configuration not stated)", "0 (no)"],
  ["[Ce+3].[Cl-].[O-]/N=C(\\c1ccccc1)c1ccccn1.[O-]/N=C(\\c1ccccc1)c1ccccn1.[O-]/N=C(\\c1ccccc1)c1ccccn1", "0 (no)"],
  ["COc1ccc(C2=C(Cl)C(=O)N(c3ccc(C)cc3)C(=O)C2(Cl)Cl)cc1", "0 (no)"],
  ["O=C(Cc1ccc(C2=NCCN2)cc1[N+](=O)[O-])c1ccc(C2=NCCN2)cc1", "1 (yes)"],
  ["Clc1c(Cl)c(Cl)c(SC2C3CC4C(C3)C42)c(Cl)c1Cl (configuration not stated)", "1 (yes)"],
  ["Cc1cc(C2c3ccccc3-c3ccccc32)cc(C)c1O", "0 (no)"]
]}

---

Assay: NCI Yeast Anticancer Drug Screen. Data for the mlh1 rad18 strain (AID 175)
Conditions: S. cerevisiae mlh1 rad18 strain growth inhibition; at 50.0 µM
This is part of a sample that, as a whole, favours compounds with a hit. Of some 79,000 tested, about 15% had one in any assay. The source made the active and inactive calls. No stated cut-off is given here; in the data, active means growth inhibition above about 70%; inactive means the rest. Where a SMILES comes first, the peptide text is derived from it. The star is where a group is joined. Cbz = O=C(OCc1ccccc1)*
Labels: 1 (yes) (active), 0 (no) (inactive)

{"columns": ["Compound", "Classification"],
 "data": [
  ["CCCSc1n[nH]c(=S)s1", "0 (no)"],
  ["CCc1scc(C)[n+]1CC(=O)c1cccc([N+](=O)[O-])c1", "0 (no)"],
  ["[Cu+2].[O-]/N=C/c1cccc(O)c1[O-].[O-]/N=C/c1cccc(O)c1[O-]", "1 (yes)"],
  ["Oc1ccc(C(=C(Br)c2ccccc2)c2ccc(O)cc2)cc1", "1 (yes)"],
  ["CCOC(=O)Nc1ccc(SCC2COC(Cn3ccnc3)(c3ccc(Cl)cc3Cl)O2)cc1 (stereo not given)", "1 (yes)"],
  ["CCOCCOc1ccc(OCCOCC)cc1", "0 (no)"],
  ["COc1cc(/C=C2/C(=O)N(C(=O)c3ccccc3O)N=C2C)cc(OC)c1OC", "0 (no)"],
  ["Fc1ccccc1CN1COc2c(cc(Cl)c3cccnc23)C1", "1 (yes)"],
  ["CCOC(=O)CNC(=O)CNC(=O)CNC(=O)OCc1ccccc1 (Cbz-Gly-Gly-Gly-OEt)", "0 (no)"],
  ["Cc1ccc(C(=O)C(CN(C)C)CN(C)C)cc1C", "1 (yes)"]
]}

---

Experiment: NCI Yeast Anticancer Drug Screen. Data for the rad50 strain (AID 155);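 further: 0% = growth of vehicle-only cultures of the same strain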
Details: S. cerevisiae rad50 strain growth inhibition; at 5.0 µM (retest, dose inferred, filed as 0.5); hits give high values
The panel holds about 79,000 compounds, 15% with a hit somewhere; the sample as a whole holds those more often.
Classify as follows. Reported growth inhibition greater than or equal to 20%: Fulfilled. Reported growth inhibition below: Not fulfilled.

{"columns": ["Compound", "Classification"],
 "data": [
  ["Oc1c(Br)ccc2c(O)c(Br)ccc12", "Fulfilled"],
  ["O=C1OCC2=C1C(c1ccc(Cl)cc1)c1cc3c(cc1O2)OCO3 (stereo unspecified)", "Not fulfilled"],
  ["CCCCOC(=O)C(=O)/C(=C/N1C(=O)/C(=C/C(C)=C/c2ccccc2)SC1=S)C(=O)C=C(C)C", "Not fulfilled"],
  ["COCCn1cc(F)c(=O)[nH]c1=O", "Not fulfilled"],
  ["NC(=Nc1ccccc1)SCc1ccc([N+](=O)[O-])cc1", "Fulfilled"]
]}
